assay: Standard protocol for determination of kcat and KM (continuous spectrophotometric assay, Acetyl CoA hydrolysis at 235 nm); format: biochemical; conditions: purified protein; about 23° C.; pH 6.8; 0.2 mM acetyl CoA; glyphosate 0.125 to 10 mM
Please note: yes (1) applies when Km is 1000 µM or greater, and no (0) applies otherwise.

The following molecules have reported results that may help.
SEQ ID NO: 319: GAT polypeptide (protein, 14_7A11, GAT polypeptide) MIEVKPINAEDTYEIRHRILRPNQPLEACKYETDLLRGAFHLGGYYRGKLVSIASFHQAEHPELEGLKQYQLRGMATLEGYREQKAGSTLIRHAEELLRKKGADLLWCNARTSASGYYKKLGFSEQGEVYDTPPTGPHILMYKKLT :: yes (1)
SEQ ID NO: 276: GAT polypeptide (protein, 10_23F2, GAT polypeptide) MIEVKPINAEDTYEIRHRILRPNQPLEACMYETDLLGGTFHLGGYYRGKLVSIASFHQAEHPELEGQKQYQLRGMATLEGYREQKAGSTLIRHAEELLRKKGADLLWCNARTSASGYYKKLGFSEQGEVYDTPPVGPHILMYKKLT :: no (0)
SEQ ID NO: 321: GAT polypeptide (protein, 14_7A9, GAT polypeptide) MIEVKPINAEDTYEIRHRILRPNQPLEACKYETDLLGGTFHLGGYYRGKLVSIASFHQAKHPELEGQKQYQLRGMATLEGYREQKAGSTLIRHAEELLRKKGADLLWCNARTSASGYYKKLGFSEQGEVYDTPPVGPHILMYKKLT :: yes (1)
SEQ ID NO: 393: GAT polypeptide (protein, 6_20A9, GAT polypeptide) MIEVKPINAGDTYEIRHRILRPNQPLEACKYETDLLGGTFHLGGYYRGKLISIASFHQAEHSELEGQKQYQLRGMATLEGYREQKAGSTLIRHAEELLRKKGADLLWCNARTSASGYYKKLGFSEQGGVYDIPPVGPHILMYKKLT :: yes (1)
SEQ ID NO: 457: GAT polypeptide (protein, 10_4H4, GAT polypeptide) MLEVKPINAEDTYELRHKILRPNQPLEVCMYETDLLRGAFHLGGFYRGKLISIASFHQAEHSELQGQKQYQLRGMATLEGYREQKAGSSLIKHAEEILRKRGADLLWCNARTSASGYYKKLGFSEQGEVFDTPPVGPHILMYKRIT :: no (0)

Threshold query (Km >= 1000 µM) on SEQ ID NO: 382: GAT polypeptide (protein, 6_15G7, GAT polypeptide) MIEVKPINAEDTYEIRHRILRPNQPLEACKYETDLLGGTFHLGGYYRGKLISIASFHQAEHSELEGQKQYQLRGMATLEGYREQKAGSTLIRHAEELLRKKGADLLWCNARTSASGYYKKLGFSEQGEVYDIPPVGPHILMYKKLT
yes (1)

I'd appreciate it if you could say whether SEQ ID NO: 473: GAT polypeptide (protein, 1_2D4, GAT polypeptide) MIEVKPINAEDTYELRHRILRPNQPIEACMYESDLLRGSFHLGGFYRGKLISIASFHQAEHSDLQGQKQYQLRGMATLEGYREQKAGSSLIKHAEQLLRKKGADMLWCNARTSAAGYYKRLGFSEHGEIFETPPVGPHILMYKRIT has Km at least equal to 1000 µM.
yes (1)

Please indicate if the recorded Km for SEQ ID NO: 289: GAT polypeptide (protein, 12_5C10, GAT polypeptide) MIEVKPINAEDTYEIRHRILRPNQPLEACKYETDLLGGTFHLGGYYRGKLISIASFHQAEHPELEGQKQYQLRGMATLEEYREQKAGSTLIRHAEELLRKKGADLLWCNARTSASGYYKKLGFSEQGEVYDAPPTGPHILMYKKLT meets or exceeds 1000 µM.
yes (1)

Would you say SEQ ID NO: 338: GAT polypeptide (protein, 15_6G11, GAT polypeptide) MIEVKPINAEDTYEIRHRILRPNQPLEACKYETDLLRGAFHLGGYYRGKLVSIASFHQAEHPELEGQKQYQLRGMATLEEYREQKAGSTLIRHAEELLRKKGADLLWCNARTSASGYYKKLGFSEQGKVYDIPPVGPHILMYKKLT shows Km at minimum 1000 µM?
no (0)

Please indicate if the recorded Km for SEQ ID NO: 293: GAT polypeptide (protein, 12_6H6, GAT polypeptide) MIEVKPINAEDTYEIRHRILRPNQPLEACKYETDLLGGTFHLGGYYRGKLVSIASFHQAEHPELEGQKQYQLRGMATLEGYREQKAGSTLIRHAEALLRKKGADLLWCNARTSASGYYKKLGFSEQGEVYDIPPTGPHILMYKKLT meets or exceeds 1000 µM.
yes (1)
